Data provenance is paper PMC5439695.

Test system: HepG2 cells
Conditions: HepG2, glo, 16 hrs, n=136
endpoint_name: IC50 (µM)

> print(dat)
                                   compound  value.observed
1  CCCCCCCC[N+](CCCCCCCC)(CCCCCCCC)CCCCCCCC [tetra-N-octylammonium bromide, reference compound]            7.53

====

System: HEK293 cells
Conditions: HEK293 glo, time point 0
endpoint_name: hek293_glo_emax_0

molecule	value_observed
O=C(O)c1ccccc1O.Oc1cccc2cccnc12	0
CN(C)c1ccc(C(=C2C=CC(=[N+](C)C)C=C2)c2ccccc2)cc1.CN(C)c1ccc(C(=C2C=CC(=[N+](C)C)C=C2)c2ccccc2)cc1.O=C(O)C(=O)O.O=C([O-])C(=O)O.O=C([O-])C(=O)O [Malachite green oxalate]	0
Cc1cc(N)c2cc(NC(=O)Nc3ccc4nc(C)cc(N)c4c3)ccc2n1.Cl.Cl [Aminoquinuride dihydrochloride]	0
CC(C)=CCC/C(C)=C/CO	0
O=S1(=O)OC(c2ccc(O)cc2)(c2ccc(O)cc2)c2ccccc21	-33.7
